Data credit: ChEMBL document CHEMBL4028840

Measured pIC50 of individual entries
system: Trypanosoma cruzi; assay: Anti-parasitic activity against Trypanosoma cruzi Tulahuen CL2 infected in human MRC5 cells after 7 days by chlorophenol red […]-D-galactopyranoside dye based assay; type: functional, cell-based; conditions: Trypanosoma cruzi, Tulahuen CL2, MRC5, 168 h
// pIC50 here means minus log10 of the molar concentration (mol/L)

// solved cases for pIC50 follow
molecule	pIC50
CC1(COc2ccc(OC(F)(F)F)cc2)Cn2nc([N+](=O)[O-])nc2[S+]1[O-] (centres undefined)	5.92
CC1(COCc2ccc(-c3ccc(F)cc3)cc2)Cn2cc([N+](=O)[O-])nc2S1 (centres undefined)	6.82

Read off the recorded pIC50 for CC1(COc2ccc(Oc3ccccc3)cc2)Cn2cc([N+](=O)[O-])nc2S1(=O)=O (centres undefined)
6.34

Let me know recorded pIC50 for O=[N+]([O-])c1cn2c(n1)SC(COc1ccc(Oc3ccccc3)cc1)C2 (centres undefined) , thanks.
5.80

Give the reported pIC50 for this molecule. CC1(COc2ccc(OC(F)(F)F)cc2)Cn2cc([N+](=O)[O-])nc2S1(=O)=O (centres undefined)
5.74

Provide measured pIC50 value, entry: CC1(COCc2ccc(-c3ccc(OC(F)(F)F)cc3)cc2)Cn2cc([N+](=O)[O-])nc2S1 (centres undefined)
6.85

Please look at this molecule and report its pIC50: CC1(COc2ccc(OC(F)(F)F)cc2)Cn2cc([N+](=O)[O-])nc2[S+]1[O-] (stereo in doubt; 37)
5.64

Give reported pIC50 value for CC1(COCc2ccc(OC(F)(F)F)cc2)Cn2cc([N+](=O)[O-])nc2S1(=O)=O (centres undefined)
6.01

Determine from records and report pIC50 for CC1(COc2ccc(Oc3ccccc3)cc2)Cn2cc([N+](=O)[O-])nc2S1 (centres undefined)
6.85

###

experiment: Solubility in HCl at pH 1 after 15 mins by HPLC method; format: physicochemical
measurementType: solubility at 0.25 h (µg/mL)
Number in µg/mL, nothing else.

Tell me its solubility at 0.25 h given CC1(COc2ccc(N3CCC(Oc4ccc(OC(F)(F)F)cc4)CC3)cc2)Cn2cc([N+](=O)[O-])nc2S1 (stereo unspecified) as the entry.
13

###

The entries below are paired with their reported remaining at 1 h.
assay: Stability in CD-1 mouse liver microsomes assessed as compound remaining measured after 1 hr; format: ADME, microsome; settings: read-out: Stability
The response must be a number in % with no trailing unit.

compound	unitsSymbol	remaining at 1 h
CC1(COc2ccc(-c3ccc(OC(F)(F)F)cc3)cc2)Cn2cc([N+](=O)[O-])nc2S1 (centres undefined)	%	75
C[C@]1(COCc2ccc(OC(F)(F)F)cc2)Cn2cc([N+](=O)[O-])nc2S1	%	0
C[C@]1(COc2ccc(N3CCC(Oc4ccc(OC(F)(F)F)cc4)CC3)cc2)Cn2cc([N+](=O)[O-])nc2O1	%	87

Please look at the following compound next.
Supply reported remaining at 1 h belonging to this compound: O=[N+]([O-])c1cn2c(n1)OC[C@@H](COc1ccc(OC(F)(F)F)cc1)C2
94

###

Quick list: fold change (FC) per entry.
tested on: Mycobacterium tuberculosis; experiment: Anti-tubercular activity against Mycobacterium tuberculosis infected in BALB/c mouse assessed as reduction in lung colony forming units at 100 mg/kg, po administered via gavage for 5 days each week for 3 weeks measured after 1 day post last dose relative to PA-824; format: functional
API doc: respond with a numeric literal and nothing else, no unit.

compound	fold change (FC)
CC1(COc2ccc(-c3ccc(OC(F)(F)F)cc3)cc2)Cn2cc([N+](=O)[O-])nc2O1 (centres undefined)	115

Specify measured fold change (FC) for CC1(COCc2ccc(OC(F)(F)F)cc2)Cn2cc([N+](=O)[O-])nc2O1 (centres undefined) .
0.025

Item CC1(COc2ccc(-c3ccc(OC(F)(F)F)cc3)cc2)Cn2cc([N+](=O)[O-])nc2S1 (centres undefined) : provide fold change (FC)
5.7

Supply recorded fold change (FC) for C[C@]1(COc2ccc(N3CCC(Oc4ccc(OC(F)(F)F)cc4)CC3)cc2)Cn2cc([N+](=O)[O-])nc2O1 here.
68

###

molecules and their reported pIC50
system: Trypanosoma brucei brucei; assay: Anti-parasitic activity against Trypanosoma brucei brucei Squib-427 after 72 hrs by resazurin dye based fluorescence assay; format: functional
Would you please state pIC50, meaning minus log10 of the concentration in mol/L, as a bare number?

Reference set, count: 2
molecule	measurementType	recordedValue
CC1(COc2ccc(OC(F)(F)F)cc2)Cn2cc([N+](=O)[O-])nc2[S+]1[O-] (stereo in doubt; 38)	pIC50	4.39
CC1(COc2ccc(Oc3ccccc3)cc2)Cn2cc([N+](=O)[O-])nc2[S+]1[O-] (stereo in doubt; 39)	pIC50	6.44

Turning to the following molecule.
Item CC1(COc2ccc(Oc3ccccc3)cc2)Cn2cc([N+](=O)[O-])nc2[S+]1[O-] (stereo in doubt; 40) : provide pIC50
6.01

###

test system: Leishmania infantum; experiment: Anti-parasitic activity against Leishmania infantum MHOM/MA(BE)/67 amastigotes infected in mouse primary peritoneal macrophages after 5 days by giemsa staining based microscopic method; assay type: functional
measurementType: pIC50
Scale explanation: pIC50 corresponds to minus log10 of a concentration expressed in moles per litre.

Retrieve pIC50 on Leishmania infantum; query CC1(COc2ccc(Oc3ccccc3)cc2)Cn2cc([N+](=O)[O-])nc2[S+]1[O-] (stereo in doubt; 40)
4.38

###

tested on: Trypanosoma cruzi; test: Anti-parasitic activity against Trypanosoma cruzi Tulahuen CL2 infected in human MRC5 cells after 7 days by chlorophenol red […]-D-galactopyranoside dye based assay; type: functional, cell-based; details: Trypanosoma cruzi, Tulahuen CL2, MRC5, 168 h
pIC50: −log10 of the molar value.
Group membership follows pIC50 per the scheme low band: < 6; middle band: ≥ 6 and < 7; high band: ≥ 7

These solved cases illustrate the format of a correct answer.
compound	class
CC1(COc2ccc(OC(F)(F)F)cc2)Cn2cc([N+](=O)[O-])nc2S1 (stereo not drawn)	middle band
C[C@@]1(COCc2ccc(OC(F)(F)F)cc2)Cn2cc([N+](=O)[O-])nc2S1	low band
CC1(COc2ccc(N3CCC(Oc4ccc(OC(F)(F)F)cc4)CC3)cc2)Cn2cc([N+](=O)[O-])nc2S1 (stereo not drawn)	high band
CC1(COc2ccc(-c3ccc(C(F)(F)F)cc3)cc2)Cn2cc([N+](=O)[O-])nc2S1 (stereo not drawn)	high band
CC1(COCc2ccc(-c3ccc(C(F)(F)F)cc3)cc2)Cn2cc([N+](=O)[O-])nc2S1 (stereo not drawn)	high band

Next up:
Could you place CC1(COc2ccc(OC(F)(F)F)cc2)Cn2nc(Br)nc2S1 (stereo not drawn) in its proper category? Many thanks.
low band

###

Measured pIC50 values are reported for all entries that follow.
tested on: Leishmania infantum; assay: Anti-parasitic activity against Leishmania infantum MHOM/MA(BE)/67 amastigotes infected in mouse primary peritoneal macrophages after 5 days by giemsa staining based microscopic method; format: functional; settings: Leishmania infantum, MHOM/MA(BE)/67, 120 h
pIC50: −log10 of the molar value.

Example results:
molecule	measurementType	recordedValue
CC1(COc2ccc(-c3ccc(C(F)(F)F)cc3)cc2)Cn2cc([N+](=O)[O-])nc2S1 (centres undefined)	pIC50	< 4.19
C[C@@]1(COCc2ccc(OC(F)(F)F)cc2)Cn2cc([N+](=O)[O-])nc2S1	pIC50	< 4.19
CC1(COc2ccc(OC(F)(F)F)cc2)Cn2nc(Br)nc2S1 (centres undefined)	pIC50	< 4.19
CC1(COCc2ccc(OC(F)(F)F)cc2)Cn2cc([N+](=O)[O-])nc2S1(=O)=O (centres undefined)	pIC50	< 4.19

Given CC1(COc2ccc(OC(F)(F)F)cc2)Cn2cc([N+](=O)[O-])nc2S1 (centres undefined) , respond with its pIC50.
< 4.19

Please report the measured pIC50 for O=[N+]([O-])c1cn2c(n1)SC(COc1ccc(OC(F)(F)F)cc1)C2 (centres undefined)
< 4.19

Query pIC50 for CC1(COc2ccc(-c3ccc(F)cc3)cc2)Cn2cc([N+](=O)[O-])nc2S1 (centres undefined)
< 4.19

Fill in reported pIC50 for this entry: CC1(COc2ccc(Oc3ccccc3)cc2)Cn2cc([N+](=O)[O-])nc2S1 (centres undefined)
< 4.19

Let me know recorded pIC50 for CC1(COc2ccc(OC(F)(F)F)cc2)Cn2cc([N+](=O)[O-])nc2[S+]1[O-] (stereo in doubt; 37) , thanks.
< 4.19

Input C[C@]1(COCc2ccc(OC(F)(F)F)cc2)Cn2cc([N+](=O)[O-])nc2S1 , output reported pIC50.
< 4.19

Indicate the recorded pIC50 value for this molecule: CC1(COCc2ccc(-c3ccc(F)cc3)cc2)Cn2cc([N+](=O)[O-])nc2S1 (centres undefined)
< 4.19

Given the molecule CC1(COCc2ccc(OC(F)(F)F)cc2)Cn2cc([N+](=O)[O-])nc2[S+]1[O-] (stereo in doubt; 18) , write its reported pIC50.
< 4.19

Annotate the molecule CC1(COc2ccc(OC(F)(F)F)cc2)Cn2cc([N+](=O)[O-])nc2S1(=O)=O (centres undefined) with its measured pIC50.
< 4.19

Look up and report measured pIC50 for this entry: CC1(COCc2ccc(OC(F)(F)F)cc2)Cn2c([N+](=O)[O-])cnc2S1 (centres undefined)
< 4.19
